biological target: HLA-B*44:02; assay: IEDB peptide-MHC binding, purified MHC/direct/fluorescence; filed as Kd, often an IC50 or EC50 that approximates it; bounds were set here for any values at or beyond the usual limits of such assays; conditions: source organism: Dengue virus 1 Singapore/S275/1990
pKd: −log10 of the molar value.
endpoint-name: pKd

pKd for SEMGANFRA ?
≤ 4.42

###

biological target: HLA-B*27:03; assay: IEDB peptide-MHC binding, purified MHC/competitive/fluorescence; filed as Kd, often an IC50 or EC50 that approximates it; bounds were set here for any values at or beyond the usual limits of such assays; details: source organism: Orthohantavirus sinnombreense
endpoint-name: Kd

Could you share which Kd value was measured for KLHRYIDSM ?
≥ 20 µM

###

target: HLA-B*08:01; experiment: IEDB peptide-MHC binding, purified MHC/competitive/fluorescence; bounds were set here for any values at or beyond the usual limits of such assays; conditions: source organism: Sudan ebolavirus
pIC50: −log10 of the molar value.
endpoint-name: pIC50

Consider the sequence shown here: TVIYRGVNF What is its recorded pIC50?
≤ 4.06

###

target: HLA-B*83:01; test: IEDB peptide-MHC binding, purified MHC/competitive/fluorescence; filed as Kd, often an IC50 or EC50 that approximates it; bounds were set here for any values at or beyond the usual limits of such assays; conditions: source organism: Coxiella burnetii RSA 493
pKd: −log10 of the molar value.
endpoint-name: pKd

Please state recorded pKd (tested on HLA-B*83:01) of YRATYSMAL
≤ 5.30

###

molecular target: HLA-A*68:02; test: IEDB peptide-MHC binding, purified MHC/direct/fluorescence; filed as Kd, often an IC50 or EC50 that approximates it; bounds were set here for any values at or beyond the usual limits of such assays; conditions: source organism: Ravn virus - Ravn, Kenya, 1987
As shown below, each of these sequences has a reported Kd value.

residues: GLSFLNPEK
Kd: ≥ 20 µM

Now look at this one.
Kd for FPSNMMVVT ?
≥ 20 µM

###

target: HLA-A*69:01; assay: IEDB peptide-MHC binding, purified MHC/competitive/fluorescence; filed as Kd, often an IC50 or EC50 that approximates it; bounds were set here for any values at or beyond the usual limits of such assays; conditions: source organism: Bacillus anthracis str. A0488
pKd: −log10 of the molar value.
Measured pKd accompanies every entry in the list below.

residues: KQGDVFYTA
pKd: ≤ 4.70

Field: next sequence
Any idea what pKd was measured for WFREDRSPV ?
≤ 4.70

###

biological target: HLA-A*02:06; test: IEDB peptide-MHC binding, purified MHC/competitive/radioactivity; filed as Kd, often an IC50 or EC50 that approximates it; bounds were set here for any values at or beyond the usual limits of such assays; settings: source organism: Vaccinia virus WR
endpoint-name: pKd
Quick note: pKd values are minus log10 of concentrations in mol/L.

residues: YAAEMVEYL
experimental-value: 7.93
//
residues: TVKNVDIIDL
experimental-value: 4.91
//
residues: IIYSKAGNIL
experimental-value: 6.47
//
residues: VIRHVDGKI
experimental-value: 5.03
//
residues: DMDFDLNIFM
experimental-value: 5.27

Form field: pKd recorded for RTNDLTALL with HLA-A*02:06 (enter value)
6.92

Observed pKd on HLA-A*02:06 for LLENKSLTIL , please.
5.13

###

molecular target: HLA-B*15:01; assay: IEDB peptide-MHC binding, purified MHC/competitive/radioactivity; filed as Kd, often an IC50 or EC50 that approximates it; bounds were set here for any values at or beyond the usual limits of such assays; conditions: source organism: Dengue virus 1 Brazil/97-11/1997
endpoint-name: Kd (µM)
Unit µM implied. Number only.

State the recorded Kd for this entry: LAVSGVYPM
0.0664

###

biological target: HLA-B*48:01; experiment: IEDB peptide-MHC binding, purified MHC/competitive/fluorescence; filed as Kd, often an IC50 or EC50 that approximates it; bounds were set here for any values at or beyond the usual limits of such assays; conditions: source organism: Burkholderia mallei SAVP1
endpoint-name: pKd
Units for pKd: none; it is -log10 of a concentration expressed in mol/L.

Param item = RALAYDPAL ; retrieve measured pKd.
7.09

###

target: HLA-B*08:01; assay: IEDB peptide-MHC binding, purified MHC/direct/fluorescence; filed as Kd, often an IC50 or EC50 that approximates it; bounds were set here for any values at or beyond the usual limits of such assays; conditions: source organism: Shigella dysenteriae
endpoint-name: Kd

Query (sequence): TTFPVNGGY ; field requested: Kd
≥ 20 µM

###

target: HLA-B*57:01; experiment: IEDB peptide-MHC binding, purified MHC/direct/fluorescence; filed as Kd, often an IC50 or EC50 that approximates it; bounds were set here for any values at or beyond the usual limits of such assays; conditions: source organism: Marburg virus - Musoke, Kenya, 1980
pKd: −log10 of the molar value.
endpoint-name: pKd

residues: CVFKFIVAK
pKd: ≤ 4.70

Look up pKd for this sequence: LFLSFCSLF
≤ 4.70

###

Known pKd of a selection of sequences
molecular target: HLA-A*32:01; assay: IEDB peptide-MHC binding, purified MHC/competitive/radioactivity; filed as Kd, often an IC50 or EC50 that approximates it; bounds were set here for any values at or beyond the usual limits of such assays; settings: source organism: Dengue virus 4 Philippines/H241/1956
Remember the convention: pKd equals -log10 of concentration in molar.

residues: ITNELNYVL
target-or-system: HLA-A*32:01
endpoint-name: pKd
experimental-value: 7.13

Consider now this further sequence.
Which pKd reading was recorded for the sequence RSWPLNEGI ?
6.31

###

target: HLA-B*27:03; test: IEDB peptide-MHC binding, purified MHC/competitive/fluorescence; filed as Kd, often an IC50 or EC50 that approximates it; bounds were set here for any values at or beyond the usual limits of such assays; settings: source organism: Bacillus anthracis str. A0488
pKd: −log10 of the molar value.
endpoint-name: pKd

Notebook: pull reported pKd for HLA-B*27:03, entry KQGDVFYTA
≤ 4.70

###

target: HLA-B*15:01; experiment: IEDB peptide-MHC binding, purified MHC/direct/fluorescence; filed as Kd, often an IC50 or EC50 that approximates it; bounds were set here for any values at or beyond the usual limits of such assays; conditions: source organism: Mycobacterium tuberculosis F11
endpoint-name: Kd (nM)
Numbers only here, please. The scale is nM.

Record lookup: for HLA-B*15:01, what Kd belongs to ALSTGAGAY ?
436

###

molecular target: HLA-B*18:01; assay: IEDB peptide-MHC binding, purified MHC/direct/fluorescence; filed as Kd, often an IC50 or EC50 that approximates it; bounds were set here for any values at or beyond the usual limits of such assays; settings: source organism: Coxiella burnetii Q321
pKd: −log10 of the molar value.
endpoint-name: pKd

What value of pKd has been recorded for this entry: YRATYSMAL
≤ 4.70

###

target: HLA-A*02:01; test: IEDB peptide-MHC binding, purified MHC/direct/fluorescence; filed as Kd, often an IC50 or EC50 that approximates it; bounds were set here for any values at or beyond the usual limits of such assays; conditions: source organism: Yersinia pestis
In this section we review reported Kd values for a set of sequences.
Form entry: value (nM) — number only.

residues: WQNLAWAGV
Kd (nM): 53.6

Now turn to the next sequence.
Sample FLRFGDFKL — what was its Kd?
5.5

###

target: HLA-B*15:01; assay: IEDB peptide-MHC binding, purified MHC/direct/fluorescence; filed as Kd, often an IC50 or EC50 that approximates it; bounds were set here for any values at or beyond the usual limits of such assays; conditions: source organism: Vibrio cholerae
endpoint-name: pKd
In plain terms, pKd is the concentration in mol/L turned into minus its base-10 logarithm.

pKd lookup needed for QLQCHQIAI , thanks.
5.14

###

molecular target: HLA-A*11:01; experiment: IEDB peptide-MHC binding, purified MHC/competitive/radioactivity; filed as Kd, often an IC50 or EC50 that approximates it; bounds were set here for any values at or beyond the usual limits of such assays; settings: source organism: Homo sapiens
endpoint-name: pKd
Friendly reminder that pKd comes from taking -log10 of the concentration in mol/L.

Endpoint output: pKd of ASNAPSAAK . Value?
7.85

###

target: HLA-B*48:01; assay: IEDB peptide-MHC binding, purified MHC/direct/fluorescence; filed as Kd, often an IC50 or EC50 that approximates it; bounds were set here for any values at or beyond the usual limits of such assays; settings: source organism: Mycobacterium tuberculosis
endpoint-name: Kd

residues: QINELHHSK
Kd: ≥ 20 µM

Here's the next entry for you.
Missing value: Kd, HLA-B*48:01, entry ALFDRPAFK . Fill in?
≥ 20 µM

###

target: HLA-B*07:02; experiment: IEDB peptide-MHC binding, purified MHC/direct/fluorescence; filed as Kd, often an IC50 or EC50 that approximates it; bounds were set here for any values at or beyond the usual limits of such assays; conditions: source organism: Influenza A virus (A/South Carolina/1/1918(H1N1))
endpoint-name: Kd

Recorded Kd for RLFFKCIYR , please?
≥ 20 µM
